Just for reference, patent US8691865B2 is where these values come from.

Biological target: human Cav2.2 (Homo sapiens, UniProt Q00975)
Sequence (Q00975 whole entry): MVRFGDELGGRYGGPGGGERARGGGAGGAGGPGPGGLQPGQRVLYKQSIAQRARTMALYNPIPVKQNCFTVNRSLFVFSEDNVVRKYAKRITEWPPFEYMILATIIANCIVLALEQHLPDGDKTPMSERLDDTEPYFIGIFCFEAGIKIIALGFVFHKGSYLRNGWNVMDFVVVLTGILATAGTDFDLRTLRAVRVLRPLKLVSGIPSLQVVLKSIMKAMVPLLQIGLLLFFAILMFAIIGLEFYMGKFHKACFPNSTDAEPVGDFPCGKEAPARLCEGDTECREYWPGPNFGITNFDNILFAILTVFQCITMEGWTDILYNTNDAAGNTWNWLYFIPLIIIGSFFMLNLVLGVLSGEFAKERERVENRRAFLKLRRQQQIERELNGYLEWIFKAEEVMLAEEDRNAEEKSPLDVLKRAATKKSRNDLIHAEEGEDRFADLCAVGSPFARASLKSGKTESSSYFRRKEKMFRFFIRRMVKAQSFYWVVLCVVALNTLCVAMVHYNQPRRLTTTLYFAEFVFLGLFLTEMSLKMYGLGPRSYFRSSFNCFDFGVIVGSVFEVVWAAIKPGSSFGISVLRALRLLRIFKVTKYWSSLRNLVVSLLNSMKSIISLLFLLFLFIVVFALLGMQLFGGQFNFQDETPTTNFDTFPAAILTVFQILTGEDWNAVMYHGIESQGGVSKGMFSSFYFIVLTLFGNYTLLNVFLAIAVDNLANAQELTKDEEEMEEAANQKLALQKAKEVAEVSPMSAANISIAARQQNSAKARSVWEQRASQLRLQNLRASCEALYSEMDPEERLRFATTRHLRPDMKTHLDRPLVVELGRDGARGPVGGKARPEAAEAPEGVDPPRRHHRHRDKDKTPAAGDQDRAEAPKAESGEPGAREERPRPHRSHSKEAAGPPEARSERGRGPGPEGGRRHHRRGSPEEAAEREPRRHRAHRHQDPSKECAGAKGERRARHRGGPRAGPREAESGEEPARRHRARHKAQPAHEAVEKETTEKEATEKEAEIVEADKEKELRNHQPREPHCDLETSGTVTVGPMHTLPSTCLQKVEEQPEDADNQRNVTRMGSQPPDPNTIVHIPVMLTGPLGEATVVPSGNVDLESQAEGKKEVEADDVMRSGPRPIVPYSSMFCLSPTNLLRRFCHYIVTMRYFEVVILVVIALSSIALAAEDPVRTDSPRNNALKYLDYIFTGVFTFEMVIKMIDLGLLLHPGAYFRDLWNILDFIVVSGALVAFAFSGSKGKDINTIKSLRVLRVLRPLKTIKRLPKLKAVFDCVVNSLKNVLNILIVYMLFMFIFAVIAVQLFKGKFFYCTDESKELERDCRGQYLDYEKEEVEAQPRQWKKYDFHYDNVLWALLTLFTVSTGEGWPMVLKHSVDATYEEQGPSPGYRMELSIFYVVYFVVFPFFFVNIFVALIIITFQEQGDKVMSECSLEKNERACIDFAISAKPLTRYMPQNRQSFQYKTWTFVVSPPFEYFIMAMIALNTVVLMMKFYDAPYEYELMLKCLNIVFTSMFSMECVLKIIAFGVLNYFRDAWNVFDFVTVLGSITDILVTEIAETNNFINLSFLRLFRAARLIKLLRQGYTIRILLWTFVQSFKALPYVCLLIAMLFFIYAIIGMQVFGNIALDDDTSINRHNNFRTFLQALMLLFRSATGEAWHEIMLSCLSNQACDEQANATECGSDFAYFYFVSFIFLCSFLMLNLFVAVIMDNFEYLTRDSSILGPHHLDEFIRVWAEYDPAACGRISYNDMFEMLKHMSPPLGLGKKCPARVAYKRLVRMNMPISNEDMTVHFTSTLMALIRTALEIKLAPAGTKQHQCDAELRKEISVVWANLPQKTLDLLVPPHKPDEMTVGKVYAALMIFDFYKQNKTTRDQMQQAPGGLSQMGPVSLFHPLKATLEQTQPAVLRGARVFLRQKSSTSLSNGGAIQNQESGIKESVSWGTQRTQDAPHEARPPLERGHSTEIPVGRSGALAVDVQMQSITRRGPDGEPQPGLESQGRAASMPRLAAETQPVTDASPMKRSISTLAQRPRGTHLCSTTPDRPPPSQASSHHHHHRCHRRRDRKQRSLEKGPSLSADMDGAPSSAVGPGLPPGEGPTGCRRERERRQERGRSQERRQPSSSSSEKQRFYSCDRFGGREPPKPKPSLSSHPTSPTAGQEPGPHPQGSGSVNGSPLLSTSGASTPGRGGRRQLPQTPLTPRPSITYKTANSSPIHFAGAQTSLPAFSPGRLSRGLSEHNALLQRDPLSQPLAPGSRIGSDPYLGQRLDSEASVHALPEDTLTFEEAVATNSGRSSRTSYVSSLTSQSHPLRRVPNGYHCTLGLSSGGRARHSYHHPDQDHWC
Sequence (P54289 25-956 partner limits assumed): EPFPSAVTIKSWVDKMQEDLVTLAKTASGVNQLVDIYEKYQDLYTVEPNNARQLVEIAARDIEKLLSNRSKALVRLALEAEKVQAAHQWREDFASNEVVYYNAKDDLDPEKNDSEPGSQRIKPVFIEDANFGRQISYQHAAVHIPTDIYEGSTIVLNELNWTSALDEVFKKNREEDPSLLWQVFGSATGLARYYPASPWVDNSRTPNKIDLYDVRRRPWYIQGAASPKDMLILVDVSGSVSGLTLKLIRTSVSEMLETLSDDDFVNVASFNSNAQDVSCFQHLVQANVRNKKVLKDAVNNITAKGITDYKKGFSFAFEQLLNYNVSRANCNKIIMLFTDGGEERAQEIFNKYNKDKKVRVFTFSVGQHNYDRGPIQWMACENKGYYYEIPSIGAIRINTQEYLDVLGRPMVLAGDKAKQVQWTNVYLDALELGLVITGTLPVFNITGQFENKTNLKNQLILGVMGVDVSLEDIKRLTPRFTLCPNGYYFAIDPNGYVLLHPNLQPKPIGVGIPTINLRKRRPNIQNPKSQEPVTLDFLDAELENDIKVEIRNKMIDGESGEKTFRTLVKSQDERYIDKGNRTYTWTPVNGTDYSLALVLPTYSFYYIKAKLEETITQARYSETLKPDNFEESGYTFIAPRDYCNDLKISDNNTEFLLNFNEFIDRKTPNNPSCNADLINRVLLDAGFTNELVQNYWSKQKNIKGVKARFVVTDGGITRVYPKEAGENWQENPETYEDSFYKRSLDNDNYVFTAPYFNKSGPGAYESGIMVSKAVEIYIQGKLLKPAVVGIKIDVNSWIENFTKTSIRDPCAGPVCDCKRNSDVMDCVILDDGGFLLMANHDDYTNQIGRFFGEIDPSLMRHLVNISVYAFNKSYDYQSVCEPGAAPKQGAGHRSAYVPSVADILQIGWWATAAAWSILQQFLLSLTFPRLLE
Sequence (P54289 957-1103 partner limits assumed): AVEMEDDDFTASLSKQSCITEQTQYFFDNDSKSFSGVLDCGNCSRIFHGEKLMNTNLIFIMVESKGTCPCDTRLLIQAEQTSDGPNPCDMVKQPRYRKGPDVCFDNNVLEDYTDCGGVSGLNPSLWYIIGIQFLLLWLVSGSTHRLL
Sequence (P54284 whole entry partner): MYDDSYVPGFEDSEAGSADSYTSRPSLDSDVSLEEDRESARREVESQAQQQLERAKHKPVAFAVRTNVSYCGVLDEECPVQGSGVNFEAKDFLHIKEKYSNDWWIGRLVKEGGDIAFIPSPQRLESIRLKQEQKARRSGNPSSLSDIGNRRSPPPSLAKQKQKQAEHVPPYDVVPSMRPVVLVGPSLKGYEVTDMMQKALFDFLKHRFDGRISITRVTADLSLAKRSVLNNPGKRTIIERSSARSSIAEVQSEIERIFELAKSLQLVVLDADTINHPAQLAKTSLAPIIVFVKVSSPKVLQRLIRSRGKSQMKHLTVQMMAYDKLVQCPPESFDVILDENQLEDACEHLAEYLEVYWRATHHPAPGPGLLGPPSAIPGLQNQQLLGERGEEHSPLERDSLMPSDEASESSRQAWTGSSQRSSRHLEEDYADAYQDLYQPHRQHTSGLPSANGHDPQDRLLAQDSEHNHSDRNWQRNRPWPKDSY
Test: Assessment of calcium channel activity using FLIPR (Ca2+ influx in IMR32 cells)
Format: cell-based
Conditions: read-out: IC50 (μM) or percent inhibition (* indicates 3 minute incubation, otherwise 60 minute); IC50; 60 minute pre-incubation with compound; IMR32 cells, 80 mM KCl depolarization
measured-endpoint: IC50 (µM)
Please reply with the bare figure in µM and do not write the unit itself.

structure-smiles-string | measured-endpoint | test-value
CC[C@H](C(=O)N[C@H]1CC[C@@H]2CN(Cc3ccccc3)C[C@@H]21)c1ccccc1 | IC50 | 7.41

Query block: What does the data say about its IC50? Entry: "CN[C@@H](CC(C)C)C(=O)N[C@@H]1CC[C@H]2CN(S(=O)(=O)c3ccc(C(F)(F)F)cc3)C[C@H]21"
Result block: 1.41

Query block: What does the data say about its IC50? Entry: "CC(C)C[C@@H](NS(C)(=O)=O)C(=O)N[C@@H]1CC[C@H]2CN(Cc3cccc(C(F)(F)F)c3)C[C@H]21"
Result block: 6.16

Query block: What does the data say about its IC50? Entry: "O=C(N[C@@H]1CC[C@H]2CN(CCC(c3ccccc3)c3ccccc3)C[C@H]21)C(C1CCCCC1)C1CCCCC1"
Result block: 0.94
